Molecular target: Integrin alpha-IIb/beta-3 (Homo sapiens, UniProt P05106+P08514)
Assay: Inhibition of [125I]fibrinogen binding to human Fibrinogen Receptor at 50 uM
Format: protein-complex assay
Overview of reported inhibition across a group of compounds:

>  <compound.structure>
O=C(NCCCN1CCCC1=O)c1cnn(-c2nc(-c3cccc(C(F)(F)F)c3)cs2)c1C(F)(F)F

>  <assayed.target>
Integrin alpha-IIb/beta-3 (Homo sapiens, UniProt P05106+P08514)

>  <inhibition / %>
0

$$$$
>  <compound.structure>
NCCNC(=O)c1cnn(-c2nc(-c3cccc(C(F)(F)F)c3)cs2)c1C(F)(F)F

>  <assayed.target>
Integrin alpha-IIb/beta-3 (Homo sapiens, UniProt P05106+P08514)

>  <inhibition / %>
44

$$$$
>  <compound.structure>
NCCCCCNC(=O)c1cnn(-c2nc(-c3cccc(C(F)(F)F)c3)cs2)c1C(F)(F)F

>  <assayed.target>
Integrin alpha-IIb/beta-3 (Homo sapiens, UniProt P05106+P08514)

>  <inhibition / %>
61

$$$$
>  <compound.structure>
CCN(CC)CCCCCCCNC(=O)c1cnn(-c2nc(-c3cccc(C(F)(F)F)c3)cs2)c1C(F)(F)F

>  <assayed.target>
Integrin alpha-IIb/beta-3 (Homo sapiens, UniProt P05106+P08514)

>  <inhibition / %>
0

$$$$
>  <compound.structure>
CCN(CC)CCCNC(=O)c1cnn(-c2nc(-c3ccc(OC)cc3)cs2)c1C(F)(F)F

>  <assayed.target>
Integrin alpha-IIb/beta-3 (Homo sapiens, UniProt P05106+P08514)

>  <inhibition / %>
57

$$$$
>  <compound.structure>
O=C(NCCCNc1ccccc1)c1cnn(-c2nc(-c3cccc(C(F)(F)F)c3)cs2)c1C(F)(F)F

>  <assayed.target>
Integrin alpha-IIb/beta-3 (Homo sapiens, UniProt P05106+P08514)

>  <inhibition / %>
0

$$$$
>  <compound.structure>
O=C(NCCCn1ccnc1)c1cnn(-c2nc(-c3cccc(C(F)(F)F)c3)cs2)c1C(F)(F)F

>  <assayed.target>
Integrin alpha-IIb/beta-3 (Homo sapiens, UniProt P05106+P08514)

>  <inhibition / %>
0

$$$$

###

Target: Integrin alpha-IIb/beta-3 (Homo sapiens, UniProt P05106+P08514)
Experiment: Inhibition of [125I]fibrinogen binding to human Fibrinogen Receptor.
Sequence (P05106 27-788 limits assumed): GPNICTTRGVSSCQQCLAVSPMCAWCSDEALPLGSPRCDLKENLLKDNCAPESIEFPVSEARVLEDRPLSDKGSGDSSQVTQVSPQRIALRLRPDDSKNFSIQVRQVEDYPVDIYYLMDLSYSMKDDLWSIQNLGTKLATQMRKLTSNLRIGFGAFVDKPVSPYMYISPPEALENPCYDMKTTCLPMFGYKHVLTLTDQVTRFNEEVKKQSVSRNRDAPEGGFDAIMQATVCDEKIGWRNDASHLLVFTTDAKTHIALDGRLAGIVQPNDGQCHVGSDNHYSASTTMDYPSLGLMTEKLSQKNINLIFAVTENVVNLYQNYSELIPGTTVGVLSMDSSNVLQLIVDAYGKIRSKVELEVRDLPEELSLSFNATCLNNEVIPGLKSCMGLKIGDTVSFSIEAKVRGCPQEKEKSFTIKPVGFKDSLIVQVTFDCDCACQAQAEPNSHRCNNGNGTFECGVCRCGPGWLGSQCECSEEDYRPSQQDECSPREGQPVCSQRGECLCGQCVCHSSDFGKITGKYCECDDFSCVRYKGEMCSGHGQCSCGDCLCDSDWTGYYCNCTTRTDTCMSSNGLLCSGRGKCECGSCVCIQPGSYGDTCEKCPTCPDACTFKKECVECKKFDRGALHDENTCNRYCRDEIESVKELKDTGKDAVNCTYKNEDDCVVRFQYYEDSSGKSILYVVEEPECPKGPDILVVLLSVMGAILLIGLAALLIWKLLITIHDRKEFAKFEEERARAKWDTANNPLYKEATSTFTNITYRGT
Sequence (P08514 32-887 limits assumed): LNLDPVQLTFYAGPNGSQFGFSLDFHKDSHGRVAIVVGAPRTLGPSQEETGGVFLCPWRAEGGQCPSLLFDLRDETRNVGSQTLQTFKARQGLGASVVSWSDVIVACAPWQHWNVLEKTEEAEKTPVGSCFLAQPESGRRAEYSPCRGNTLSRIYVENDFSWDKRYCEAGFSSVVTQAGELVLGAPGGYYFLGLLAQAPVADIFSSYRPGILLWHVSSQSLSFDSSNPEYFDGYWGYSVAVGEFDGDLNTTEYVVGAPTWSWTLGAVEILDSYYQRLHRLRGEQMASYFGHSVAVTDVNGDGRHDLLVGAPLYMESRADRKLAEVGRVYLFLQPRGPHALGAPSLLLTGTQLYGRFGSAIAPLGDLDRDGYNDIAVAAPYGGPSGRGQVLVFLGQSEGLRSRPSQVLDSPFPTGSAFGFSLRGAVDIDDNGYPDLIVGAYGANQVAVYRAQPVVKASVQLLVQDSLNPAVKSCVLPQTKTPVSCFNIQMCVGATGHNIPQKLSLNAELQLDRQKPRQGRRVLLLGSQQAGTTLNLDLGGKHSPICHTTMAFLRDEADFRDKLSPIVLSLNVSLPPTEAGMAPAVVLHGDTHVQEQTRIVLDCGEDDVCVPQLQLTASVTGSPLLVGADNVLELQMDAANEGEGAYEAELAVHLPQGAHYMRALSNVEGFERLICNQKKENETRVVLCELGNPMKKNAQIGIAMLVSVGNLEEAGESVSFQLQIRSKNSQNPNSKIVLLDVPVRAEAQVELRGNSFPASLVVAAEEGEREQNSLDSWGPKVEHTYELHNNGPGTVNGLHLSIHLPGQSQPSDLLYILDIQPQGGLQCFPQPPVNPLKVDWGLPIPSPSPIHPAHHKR
Sequence (P08514 891-1039 limits assumed): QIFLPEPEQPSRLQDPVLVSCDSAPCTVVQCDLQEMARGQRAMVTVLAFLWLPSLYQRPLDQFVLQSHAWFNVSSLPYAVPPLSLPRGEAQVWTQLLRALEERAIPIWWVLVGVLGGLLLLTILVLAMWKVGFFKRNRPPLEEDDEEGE
Overview of reported IC50 across a group of compounds:
property.measured: IC50 (µM)

>  <compound.structure>
CCCNCCCNC(=O)c1cnn(-c2nc(-c3cccc(C(F)(F)F)c3)cs2)c1C(F)(F)F

>  <assayed.target>
Integrin alpha-IIb/beta-3 (Homo sapiens, UniProt P05106+P08514)

>  <property.measured>
IC50

>  <number>
10

$$$$
>  <compound.structure>
CCN(CC)CCCNC(=O)c1cnn(-c2nc(-c3ccc(Cl)cc3)cs2)c1C(F)(F)F

>  <assayed.target>
Integrin alpha-IIb/beta-3 (Homo sapiens, UniProt P05106+P08514)

>  <property.measured>
IC50

>  <number>
45

$$$$
>  <compound.structure>
CN(C)/C=N/CCCNC(=O)c1cnn(-c2nc(-c3cccc(C(F)(F)F)c3)cs2)c1C(F)(F)F

>  <assayed.target>
Integrin alpha-IIb/beta-3 (Homo sapiens, UniProt P05106+P08514)

>  <property.measured>
IC50

>  <number>
15.6

$$$$
>  <compound.structure>
CCN(CC)CCCNC(=O)c1cnn(-c2nc(-c3cccc(C(F)(F)F)c3)cs2)c1C(F)(F)F

>  <assayed.target>
Integrin alpha-IIb/beta-3 (Homo sapiens, UniProt P05106+P08514)

>  <property.measured>
IC50

>  <number>
4.1

$$$$
>  <compound.structure>
N=C(N)CCCNC(=O)c1cnn(-c2nc(-c3cccc(C(F)(F)F)c3)cs2)c1C(F)(F)F

>  <assayed.target>
Integrin alpha-IIb/beta-3 (Homo sapiens, UniProt P05106+P08514)

>  <property.measured>
IC50

>  <number>
23

$$$$

###

Target: Integrin alpha-IIb/beta-3 (Homo sapiens, UniProt P05106+P08514)
Experiment: Inhibition of [125I]fibrinogen binding to human Fibrinogen Receptor.
Overview of reported IC50 across a group of compounds:
property.measured: IC50 (µM)

>  <compound.structure>
CC(C)NCCCNC(=O)c1cnn(-c2nc(-c3cccc(C(F)(F)F)c3)cs2)c1C(F)(F)F

>  <unit.tag>
µM

>  <number>
11.2

$$$$
>  <compound.structure>
CCN(CC)CCCNC(=O)c1cnn(-c2nc(-c3ccccc3)cs2)c1C(F)(F)F

>  <unit.tag>
µM

>  <number>
50

$$$$
>  <compound.structure>
N=C(N)NCCCNC(=O)c1cnn(-c2nc(-c3cccc(C(F)(F)F)c3)cs2)c1C(F)(F)F

>  <unit.tag>
µM

>  <number>
17.5

$$$$
